Target: CDK4/cyclin D3 (Homo sapiens, UniProt P11802)
Sequence (P11802 whole entry, species assumed): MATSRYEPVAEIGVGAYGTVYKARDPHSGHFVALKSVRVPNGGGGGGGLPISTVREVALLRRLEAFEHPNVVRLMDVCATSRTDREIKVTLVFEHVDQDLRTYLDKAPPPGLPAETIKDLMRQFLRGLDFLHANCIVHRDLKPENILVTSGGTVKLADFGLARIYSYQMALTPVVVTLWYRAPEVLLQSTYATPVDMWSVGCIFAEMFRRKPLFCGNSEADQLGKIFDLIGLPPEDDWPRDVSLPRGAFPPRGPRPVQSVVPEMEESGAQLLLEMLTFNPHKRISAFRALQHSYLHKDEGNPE
Sequence (P30281 whole entry partner, species assumed): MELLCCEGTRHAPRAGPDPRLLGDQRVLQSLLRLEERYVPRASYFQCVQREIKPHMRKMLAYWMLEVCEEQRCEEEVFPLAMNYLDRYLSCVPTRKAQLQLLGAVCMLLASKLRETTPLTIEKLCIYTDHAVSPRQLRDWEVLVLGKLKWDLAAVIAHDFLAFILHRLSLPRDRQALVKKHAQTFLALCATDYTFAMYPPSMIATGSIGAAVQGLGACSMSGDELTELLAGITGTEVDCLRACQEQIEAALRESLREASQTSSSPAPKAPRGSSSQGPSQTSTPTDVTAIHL
Test: Kinase activity assay, Caliper Mobility Shift Assay, CDK4/cyclin D3
Settings: 10 nM kinase, ATP 250 μM, 150 minutes at room temperature
Quantity kind: IC50 (nM)

COc1ccc2cc(Nc3ncc4ccc5onc(C(C)C)c5c4n3)ccc2n1 [Compound I-37]: 34

A. CC(C)c1noc2ccc3cnc(Nc4ccc(N5CCOCC5)cc4F)nc3c12 [Compound I-32]
B. CC(C)c1noc2ccc3cnc(Nc4ccc(N5CCOCC5)cc4)nc3c12 [Compound I-29]
Challenge: Look at A and B . Which one has the lower recorded IC50 number? Answer by stating the label of the chosen item.
Response given: B

1. CCN1CCN(c2ccc(Nc3ncc4ccc5onc(C(C)C)c5c4n3)cc2F)CC1 [Compound I-35]
2. c1cc(Nc2ncc3ccc4onc(C5CCCC5)c4c3n2)ncc1N1CCNCC1 [Compound I-22]
Challenge: I need your help: which of the pair 1 , 2 has higher IC50? Answer by stating the label of the chosen item.
Response given: 2

Cited source for all entries: patent US12600731B2
